target: Serotonin 1 (5-HT1) receptor (Rattus norvegicus, UniProt P28564+P30940+P19327+P28565); experiment: Inhibition of [3H]5-HT radioligand binding against 5-hydroxytryptamine 1 receptor; assay type: protein assay
Measurement kind: Ki

Query smiles	Measurement kind	Reported result
Fc1cccc(N2CCNCC2)c1	Ki	86.5 nM
COc1ccccc1N1CCNCC1	Ki	29 nM
CCCCOc1ccccc1N1CCNCC1	Ki	19.3 nM
CCOc1ccccc1N1CCNCC1	Ki	42.6 nM

Origin of values: ChEMBL document CHEMBL1124459
